System: H. contortus
Assay: Sheep experimentally infected with Haemonchus contortus, percentage clearance (Procedure No. 1)
Format: in vivo
Conditions: oral administration, single sheep per route, read-out: H. contortus %Clearance P.O.
Procedure: In individual experiments all sheep are treated identically, however non-critical variations occur between experiments. […] All animals are monitored for signs of toxicity following treatment. […] The total number of worms in a 40-100 ml aliquot (10%) is determined. […] Total worm number/sheep and percentage clearance for each treatment are calculated. […]
Assign T whenever inhibition in vivo at 100 mg/kg does not fall below 80%; assign F whenever it does.

Example cases with answers are listed next.
{"molecule": "O=C(NN=Cc1ccnc2ccccc12)C1CCC1 [Compound 29]", "class-name": "T"}
{"molecule": "NC(=O)NCC(=O)NN=Cc1ccc2ccccc2n1 [Compound 12]", "class-name": "F"}
{"molecule": "O=C(NN=Cc1cnc2ccccc2c1)C1CCCCC1 [Compound 41]", "class-name": "T"}
{"molecule": "CCOC(=O)NN=Cc1ccnc2ccccc12 [Compound 6, ethyl (4-quinolinylmethylene)carbazate]", "class-name": "T"}

hey, is inhibition in vivo at 100 mg/kg for this one >= 80%? O=C(NN=Cc1ccc2ccccc2n1)c1ccccc1 [Compound 8]
F

hey, is inhibition in vivo at 100 mg/kg for this one >= 80%? Cc1cccc(C(=O)NN=Cc2ccc3ccccc3n2)c1 [Compound 4]
F

All figures here come from patent EP0263209A2.
